- System: 857933-349-R-J2-PDC complex spheroid viability
- Experiment summary: Anticancer human tumor 857933-349-R-J2-PDC patient-derived colon adenocarcinoma cell line growth inhibition [POLQ]
- Condition description: second compound 1 µM; first compound 0.01 µM; hits give low values
Readout kind: viability, T/C (%)
Kindly provide the numeric value in % only, without the unit symbol.

Compound	viability, T/C (%)
CCc1c2c(nc3ccc(O)cc13)-c1cc3c(c(=O)n1C2)COC(=O)[C@]3(O)CC + COC1C(OC(N)=O)C(O)C(Oc2ccc3c(O)c(NC(=O)c4ccc(O)c(CC=C(C)C)c4)c(=O)oc3c2C)OC1(C)C	56.6
C=CCn1c(=O)c2cnc(Nc3ccc(N4CCN(C)CC4)cc3)nc2n1-c1cccc(C(C)(C)O)n1 + Cc1cccc(N(C)C(=O)C2C(O)CCN2c2nc(C)cc(C(F)(F)F)c2C#N)c1	91.4

What does the data say about its viability, T/C? Entry: C=CCn1c(=O)c2cnc(Nc3ccc(N4CCN(C)CC4)cc3)nc2n1-c1cccc(C(C)(C)O)n1 + COC1C(OC(N)=O)C(O)C(Oc2ccc3c(O)c(NC(=O)c4ccc(O)c(CC=C(C)C)c4)c(=O)oc3c2C)OC1(C)C
80.4

// same read-out, input: COc1cccc(OCCCN)c1-c1cc(Nc2cnc(C#N)cn2)n[nH]1 + Nc1ccc(C#CCN(C(=O)Cc2ncc(C(F)(F)F)cc2C(F)(F)F)c2ccc(F)cc2)nn1
88.5

// same read-out, input: CC[C@@]1(O)C(=O)OCc2c1cc1n(c2=O)Cc2cc3c(CN(C)C)c(O)ccc3nc2-1 + Cc1cccc(N(C)C(=O)C2C(O)CCN2c2nc(C)cc(C(F)(F)F)c2C#N)c1
73.4

// same read-out, input: Cn1ncnc1[C@H]1c2n[nH]c(=O)c3cc(F)cc(c23)N[C@@H]1c1ccc(F)cc1 + COC1C(OC(N)=O)C(O)C(Oc2ccc3c(O)c(NC(=O)c4ccc(O)c(CC=C(C)C)c4)c(=O)oc3c2C)OC1(C)C
77.8

// same read-out, input: COc1cccc(OCCCN)c1-c1cc(Nc2cnc(C#N)cn2)n[nH]1 + COC1C(OC(N)=O)C(O)C(Oc2ccc3c(O)c(NC(=O)c4ccc(O)c(CC=C(C)C)c4)c(=O)oc3c2C)OC1(C)C
84.2

// same read-out, input: Cn1ncnc1[C@H]1c2n[nH]c(=O)c3cc(F)cc(c23)N[C@@H]1c1ccc(F)cc1 + Nc1ccc(C#CCN(C(=O)Cc2ncc(C(F)(F)F)cc2C(F)(F)F)c2ccc(F)cc2)nn1
97.5

// same read-out, input: Cn1ncnc1[C@H]1c2n[nH]c(=O)c3cc(F)cc(c23)N[C@@H]1c1ccc(F)cc1 + Cc1cccc(N(C)C(=O)C2C(O)CCN2c2nc(C)cc(C(F)(F)F)c2C#N)c1
82

// same read-out, input: CC[C@@]1(O)C(=O)OCc2c1cc1n(c2=O)Cc2cc3c(CN(C)C)c(O)ccc3nc2-1 + COC1C(OC(N)=O)C(O)C(Oc2ccc3c(O)c(NC(=O)c4ccc(O)c(CC=C(C)C)c4)c(=O)oc3c2C)OC1(C)C
72

----------
- Test system: 857933-349-R-J2-PDC complex spheroid viability
- Experiment summary: Anticancer human tumor 857933-349-R-J2-PDC cell line growth inhibition [POLQ];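 further: spheroids exposed to compounds for seven days before readout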
- Condition description: second compound 1 µM; first compound 0.0316 µM; hits give low values
List of viability, T/C values.
Kindly provide the numeric value in % only, without the unit symbol.

What does the data say about its viability, T/C? Entry: COc1cccc2c1C(=O)c1c(O)c3c(c(O)c1C2=O)CC(O)(C(=O)CO)CC3OC1CC(N)C(O)C(C)O1 (stereo not given) + COC1C(OC(N)=O)C(O)C(Oc2ccc3c(O)c(NC(=O)c4ccc(O)c(CC=C(C)C)c4)c(=O)oc3c2C)OC1(C)C
70.9

// same read-out, input: COc1cc2cc(C(=O)CCC(=O)O)sc2cc1OC + Cc1cccc(N(C)C(=O)C2C(O)CCN2c2nc(C)cc(C(F)(F)F)c2C#N)c1
89.4

// same read-out, input: CCc1c2c(nc3ccc(O)cc13)-c1cc3c(c(=O)n1C2)COC(=O)[C@]3(O)CC + COC1C(OC(N)=O)C(O)C(Oc2ccc3c(O)c(NC(=O)c4ccc(O)c(CC=C(C)C)c4)c(=O)oc3c2C)OC1(C)C
22.9

// same read-out, input: CCCS(=O)(=O)Nc1ccc(F)c(C(=O)c2c[nH]c3ncc(-c4ccc(Cl)cc4)cc23)c1F + Nc1ccc(C#CCN(C(=O)Cc2ncc(C(F)(F)F)cc2C(F)(F)F)c2ccc(F)cc2)nn1
116

// same read-out, input: O=C(Nc1ccc(O)c(NS(=O)(=O)c2ccc(F)cc2)c1)c1ccc(-c2ccccc2)cc1 + Nc1ccc(C#CCN(C(=O)Cc2ncc(C(F)(F)F)cc2C(F)(F)F)c2ccc(F)cc2)nn1
90.7

// same read-out, input: CCc1cc2c(N3CCc4c(cc(Cn5ccnc5)cc4-c4cn(C)nc4C(F)(F)F)C3=O)ccnc2c(OC)n1 + Cc1cccc(N(C)C(=O)C2C(O)CCN2c2nc(C)cc(C(F)(F)F)c2C#N)c1
122

// same read-out, input: C=CC(=O)N1CCN(c2nc(=O)n(-c3c(C)ccnc3C(C)C)c3nc(-c4c(O)cccc4F)c(F)cc23)C(C)C1 (stereo not given) + COC1C(OC(N)=O)C(O)C(Oc2ccc3c(O)c(NC(=O)c4ccc(O)c(CC=C(C)C)c4)c(=O)oc3c2C)OC1(C)C
101

// same read-out, input: COc1cccc2c1C(=O)c1c(O)c3c(c(O)c1C2=O)CC(O)(C(=O)CO)CC3OC1CC(N)C(O)C(C)O1 (stereo not given) + Nc1ccc(C#CCN(C(=O)Cc2ncc(C(F)(F)F)cc2C(F)(F)F)c2ccc(F)cc2)nn1
83

// same read-out, input: CC1COCCN1c1cc(C2(S(C)(=N)=O)CC2)nc(-c2ccnc3[nH]ccc23)n1 (stereo not given) + Cc1cccc(N(C)C(=O)C2C(O)CCN2c2nc(C)cc(C(F)(F)F)c2C#N)c1
92.9

// same read-out, input: CC[C@@]1(O)C(=O)OCc2c1cc1n(c2=O)Cc2cc3c(CN(C)C)c(O)ccc3nc2-1 + Cc1cccc(N(C)C(=O)C2C(O)CCN2c2nc(C)cc(C(F)(F)F)c2C#N)c1
76.6

----------
- Test system: 857933-349-R-J2-PDC complex spheroid viability
- Experiment summary: Anticancer human tumor 857933-349-R-J2-PDC cell line growth inhibition [POLQ];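 further: spheroids exposed to compounds for seven days before readout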
- Condition description: second compound 0.0316 µM; first compound 0.0316 µM; hits give low values
- Experimental: Multicellular complex tumor spheroid response to Polymerase (POL) inhibitors (novobiocin, ART-558, RP6685) in combination with a variety of drugs and investigational agents in selected tumor cell lines The POL inhibitors (novobiocin, ART-558, and RP6685) were evaluated both individually and in combination with standard of care and investigational anticancer small molecules within a complex spheroid model of solid tumors. . […]
List of viability, T/C values.
Kindly provide the numeric value in % only, without the unit symbol.

What does the data say about its viability, T/C? Entry: COc1cccc(OCCCN)c1-c1cc(Nc2cnc(C#N)cn2)n[nH]1 + Cc1cccc(N(C)C(=O)C2C(O)CCN2c2nc(C)cc(C(F)(F)F)c2C#N)c1
97

// same read-out, input: C=CCn1c(=O)c2cnc(Nc3ccc(N4CCN(C)CC4)cc3)nc2n1-c1cccc(C(C)(C)O)n1 + Cc1cccc(N(C)C(=O)C2C(O)CCN2c2nc(C)cc(C(F)(F)F)c2C#N)c1
96.8

// same read-out, input: O=C(c1cc(Cc2n[nH]c(=O)c3ccccc23)ccc1F)N1CCN(C(=O)C2CC2)CC1 + Cc1cccc(N(C)C(=O)C2C(O)CCN2c2nc(C)cc(C(F)(F)F)c2C#N)c1
109

----------
- System: 857933-349-R-J2-PDC complex spheroid viability
- Experiment summary: Anticancer human tumor 857933-349-R-J2-PDC cell line growth inhibition [POLQ]; active = viability on the fitted dose curve at most 10% of control; inactive = the rest;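 further: spheroids exposed to compounds for seven days before readout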
- Condition description: second compound 1 µM; first compound 3.16 µM
Thanks in advance; please answer with one of these: class 1 for active, class 0 for inactive

Molecule	Category label
O=c1[nH]cc(F)c(=O)[nH]1 + Nc1ccc(C#CCN(C(=O)Cc2ncc(C(F)(F)F)cc2C(F)(F)F)c2ccc(F)cc2)nn1	class 0

Write down the call the test reported for this molecule. Item: CCc1cc2c(N3CCc4c(cc(Cn5ccnc5)cc4-c4cn(C)nc4C(F)(F)F)C3=O)ccnc2c(OC)n1 + COC1C(OC(N)=O)C(O)C(Oc2ccc3c(O)c(NC(=O)c4ccc(O)c(CC=C(C)C)c4)c(=O)oc3c2C)OC1(C)C
class 0

// same read-out, input: COc1cc2cc(C(=O)CCC(=O)O)sc2cc1OC + Cc1cccc(N(C)C(=O)C2C(O)CCN2c2nc(C)cc(C(F)(F)F)c2C#N)c1
class 0

// same read-out, input: CCc1cc2c(N3CCc4c(cc(Cn5ccnc5)cc4-c4cn(C)nc4C(F)(F)F)C3=O)ccnc2c(OC)n1 + Cc1cccc(N(C)C(=O)C2C(O)CCN2c2nc(C)cc(C(F)(F)F)c2C#N)c1
class 0

// same read-out, input: COc1cccc2c1C(=O)c1c(O)c3c(c(O)c1C2=O)CC(O)(C(=O)CO)CC3OC1CC(N)C(O)C(C)O1 (stereo unspecified) + Nc1ccc(C#CCN(C(=O)Cc2ncc(C(F)(F)F)cc2C(F)(F)F)c2ccc(F)cc2)nn1
class 1

// same read-out, input: COc1cccc2c1C(=O)c1c(O)c3c(c(O)c1C2=O)CC(O)(C(=O)CO)CC3OC1CC(N)C(O)C(C)O1 (stereo unspecified) + Cc1cccc(N(C)C(=O)C2C(O)CCN2c2nc(C)cc(C(F)(F)F)c2C#N)c1
class 1

// same read-out, input: CCCS(=O)(=O)Nc1ccc(F)c(C(=O)c2c[nH]c3ncc(-c4ccc(Cl)cc4)cc23)c1F + COC1C(OC(N)=O)C(O)C(Oc2ccc3c(O)c(NC(=O)c4ccc(O)c(CC=C(C)C)c4)c(=O)oc3c2C)OC1(C)C
class 0

// same read-out, input: O=c1[nH]cc(F)c(=O)[nH]1 + COC1C(OC(N)=O)C(O)C(Oc2ccc3c(O)c(NC(=O)c4ccc(O)c(CC=C(C)C)c4)c(=O)oc3c2C)OC1(C)C
class 0

// same read-out, input: CC1COCCN1c1cc(C2(O)CC3CCC(C2)O3)c2cnn(-c3ccn[nH]3)c2n1 (stereo unspecified) + Cc1cccc(N(C)C(=O)C2C(O)CCN2c2nc(C)cc(C(F)(F)F)c2C#N)c1
class 0

// same read-out, input: C#Cc1c(F)ccc2cc(O)cc(-c3ncc4c(N5CC6CCC(C5)N6)nc(OCC56CCCN5CC(F)C6)nc4c3F)c12 (stereo unspecified) + Nc1ccc(C#CCN(C(=O)Cc2ncc(C(F)(F)F)cc2C(F)(F)F)c2ccc(F)cc2)nn1
class 0

// same read-out, input: CC(C)n1c(=O)n(C)c2cnc3cc(F)c(-c4ccc(OCCCN5CCCCC5)nc4)cc3c21 + Cc1cccc(N(C)C(=O)C2C(O)CCN2c2nc(C)cc(C(F)(F)F)c2C#N)c1
class 0
